Numbers sourced from PubChem BioAssay AID652215.

system.name: High affinity choline transporter 1 (Homo sapiens) (UniProt Q9GZV3)
Sequence (Q9GZV3 whole entry, looked up): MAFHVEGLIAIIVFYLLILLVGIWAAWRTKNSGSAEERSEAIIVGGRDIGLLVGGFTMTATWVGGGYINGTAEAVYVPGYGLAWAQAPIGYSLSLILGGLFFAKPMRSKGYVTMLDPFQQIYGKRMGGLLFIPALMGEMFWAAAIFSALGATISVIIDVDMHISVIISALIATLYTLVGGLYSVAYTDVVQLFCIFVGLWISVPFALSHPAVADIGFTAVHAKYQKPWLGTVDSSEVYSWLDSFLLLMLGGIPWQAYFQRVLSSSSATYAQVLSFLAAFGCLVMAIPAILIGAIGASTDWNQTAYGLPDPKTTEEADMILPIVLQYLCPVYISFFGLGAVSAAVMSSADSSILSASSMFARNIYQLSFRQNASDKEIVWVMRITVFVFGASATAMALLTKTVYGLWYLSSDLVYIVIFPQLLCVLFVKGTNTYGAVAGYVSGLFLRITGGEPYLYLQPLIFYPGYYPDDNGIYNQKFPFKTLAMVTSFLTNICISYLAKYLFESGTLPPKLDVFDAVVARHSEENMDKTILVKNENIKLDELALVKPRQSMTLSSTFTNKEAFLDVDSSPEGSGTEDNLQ
assay.method.text: CHT inhibition at low and high choline, SAR follow-up, mechanism study for choline transporter inhibitor project, cell-based, HEK-293 hCHT LV-AA, [3H]-choline (AID 652215)
condition.notes: [3H]-choline uptake, 15 min, measured here: 10 uM choline uptake, at 5 µM, stronger effect = lower value
recorded.endpoint: activity remaining, high choline (%)

# compound, activity remaining, high choline (%)
data = [
    ("COc1ccc(C(=O)NCc2cnn(C)c2C)cc1OC1CCN(C(C)C)CC1", 57),
    ("COCCOc1cc(C(=O)NCc2cc(C(C)C)no2)ccc1OC", 84.5),
    ("COc1ccc(C(=O)NCCCn2ccnc2)cc1OC1CCN(C(C)C)CC1", 60.8),
]

a = COc1ccc(C(=O)NCc2cc(C(C)C)no2)cc1OCC1CCC1
b = COc1ccc(C(=O)NCc2cc(C(C)C)no2)cc1OCCCN(C)C
# argmax over activity remaining, high choline for candidates a and b Kindly give the label for the entry you pick. a
(a: 92.7%, b: 59.6%)

====

system.name: High affinity choline transporter 1 (Homo sapiens) (UniProt Q9GZV3)
assay.method.text: CHT inhibition at low and high choline, SAR follow-up, mechanism study for choline transporter inhibitor project, cell-based, HEK-293 hCHT LV-AA, [3H]-choline (AID 652215)
condition.notes: [3H]-choline uptake, 15 min, at 5 µM, stronger effect = lower value
recorded.endpoint: activity remaining, low choline (%)

Recorded results for 5 compounds are shown here.
# compound, reading.unit, activity remaining, low choline
records = [
    ("COc1ccc(C(=O)NCc2ccccc2C)cc1OC1CCN(C(C)C)CC1", "%", 32.9),
    ("CCc1cc(CNC(=O)c2ccc(OC)c(OC3CCN(C)CC3)c2)on1", "%", 7.98),
    ("COc1ccc(C(=O)N[C@H]2CCCCNC2=O)cc1OC1CCN(C(C)C)CC1", "%", 13.1),
    ("COc1ccc(C(=O)NCC[C@@H]2C[C@@H]3C=C[C@H]2C3)cc1OC1CCN(C(C)C)CC1", "%", 9.91),
    ("COc1ccc(C(=O)NCc2cnn(C)c2C)cc1OC1CCN(C(C)C)CC1", "%", 33.1),
]

P = CCc1cc(CNC(=O)c2ccc(OC)c(OC(C)CN(C)C)c2)on1 (configuration not stated)
Q = CCc1cc(CNC(=O)c2ccc(OC)c(OCCN3CCCCC3)c2)on1
Looking at P and Q , which one comes out lower in activity remaining, low choline terms? Kindly give the label for the entry you pick. Q
(Q: 22.7%, P: 77.1%)

====

system.name: High affinity choline transporter 1 (Homo sapiens)
assay.method.text: CHT inhibition at low and high choline, SAR follow-up, mechanism study for choline transporter inhibitor project, cell-based, HEK-293 hCHT LV-AA, [3H]-choline (AID 652215)
condition.notes: [3H]-choline uptake, 15 min, measured here: 10 uM choline uptake, at 5 µM, stronger effect = lower value
recorded.endpoint: activity remaining, high choline (%)

1 = COc1ccc(C(=O)NCCc2c[nH]c3ccccc23)cc1OC1CCN(C(C)C)CC1
2 = COc1ccc(C(=O)NCc2cc(C(C)C)no2)cc1OCC1CCCCC1
Looking at 1 and 2 , which one comes out lower in activity remaining, high choline terms? Kindly give the label for the entry you pick. 1

1 = CCc1cc(CNC(=O)c2ccc(OC)c(OC(C)CN(C)C)c2)on1 (configuration not stated)
2 = CCc1cc(CNC(=O)c2ccc(OC)c(OC(=O)c3ccc(OC)c(O)c3)c2)on1
# argmax over activity remaining, high choline for candidates 1 and 2 Kindly give the label for the entry you pick. 2

====

system.name: High affinity choline transporter 1 (Homo sapiens) (UniProt Q9GZV3)
assay.method.text: CHT inhibition at low and high choline, SAR follow-up, mechanism study for choline transporter inhibitor project, cell-based, HEK-293 hCHT LV-AA, [3H]-choline (AID 652215)
condition.notes: [3H]-choline uptake, 15 min, at 5 µM, stronger effect = lower value
recorded.endpoint: activity remaining, low choline (%)

# compound, system.name, reading.unit, activity remaining, low choline
measured = [
    ("COc1ccc(C(=O)NCCc2cnn(C)c2)cc1OC1CCN(C(C)C)CC1", "High affinity choline transporter 1 (Homo sapiens) (UniProt Q9GZV3)", "%", 36.7),
    ("CCCCOc1cc(C(=O)NCc2cc(CC)no2)ccc1OC", "High affinity choline transporter 1 (Homo sapiens) (UniProt Q9GZV3)", "%", 92.3),
    ("CCc1cc(CNC(=O)c2ccc(OC)c(OC(=O)c3ccc(OC)c(O)c3)c2)on1", "High affinity choline transporter 1 (Homo sapiens) (UniProt Q9GZV3)", "%", 92.3),
    ("COc1ccc(C(=O)NCCCn2ccnc2)cc1OC1CCN(C(C)C)CC1", "High affinity choline transporter 1 (Homo sapiens) (UniProt Q9GZV3)", "%", 52.4),
    ("CCc1cc(CNC(=O)c2ccc(OC)c(OCC3CCC3)c2)on1", "High affinity choline transporter 1 (Homo sapiens) (UniProt Q9GZV3)", "%", 91.1),
]

a = COc1ccc(C(=O)NCc2cccc(C)c2)cc1OC1CCN(C(C)C)CC1
b = CCc1cc(CNC(=O)c2ccc(OC)c(OC3CCCN(C)C3)c2)on1 (stereo not drawn)
Looking at a and b , which one comes out lower in activity remaining, low choline terms? Kindly give the label for the entry you pick. a

====

system.name: UniProt Q9GZV3
assay.method.text: CHT inhibition at low and high choline, SAR follow-up, mechanism study for choline transporter inhibitor project, cell-based, HEK-293 hCHT LV-AA, [3H]-choline (AID 652215)
condition.notes: [3H]-choline uptake, 15 min, at 5 µM, stronger effect = lower value
recorded.endpoint: activity remaining, low choline (%)

# compound, reading.unit, activity remaining, low choline
data = [
    ("CCc1cc(CNC(=O)c2ccc(OC)c(OC3CCCC3)c2)on1", "%", 98),
    ("CCc1cc(CNC(=O)c2ccc(OC)c(OCc3ccccc3)c2)on1", "%", 90),
]

a = COc1ccc(C(=O)NCc2cc(C(C)C)no2)cc1OCc1ccccn1
b = COc1ccc(CNC(=O)c2ccc(OC)c(OC3CCN(C(C)C)CC3)c2)cc1OC
Looking at a and b , which one comes out lower in activity remaining, low choline terms? Kindly give the label for the entry you pick. b
(b: 52.7%, a: 87.2%)

I = COCCOc1cc(C(=O)NCc2cc(C(C)C)no2)ccc1OC
II = COc1ccc(C(=O)N[C@H]2CC[C@H](O)CC2)cc1OC1CCN(C(C)C)CC1
III = CCc1cc(CNC(=O)c2ccc(OC)c(OCCN3CCCC3)c2)on1
Rank ascending by activity remaining, low choline. Give the labels in the order specified. II, III, I

====

system.name: High affinity choline transporter 1 (Homo sapiens)
assay.method.text: CHT inhibition at low and high choline, SAR follow-up, mechanism study for choline transporter inhibitor project, cell-based, HEK-293 hCHT LV-AA, [3H]-choline (AID 652215)
condition.notes: [3H]-choline uptake, 15 min, measured here: 10 uM choline uptake, at 5 µM, stronger effect = lower value
recorded.endpoint: activity remaining, high choline (%)

# smiles.input, reading.unit, activity remaining, high choline
records = [
    ("CCCCOc1cc(C(=O)NCc2cc(CC)no2)ccc1OC", "%", 62.3),
]

A = CCOc1cc(C(=O)NCc2cc(CC)no2)ccc1OC
B = COc1ccc(C(=O)NCc2cccc(C)c2)cc1OC1CCN(C(C)C)CC1
Looking at A and B , which one comes out lower in activity remaining, high choline terms? Kindly give the label for the entry you pick. B
(B: 60.9%, A: 87.1%)

====

system.name: High affinity choline transporter 1 (Homo sapiens) (UniProt Q9GZV3)
assay.method.text: CHT inhibition at low and high choline, SAR follow-up, mechanism study for choline transporter inhibitor project, cell-based, HEK-293 hCHT LV-AA, [3H]-choline (AID 652215)
condition.notes: [3H]-choline uptake, 15 min, at 5 µM, stronger effect = lower value
recorded.endpoint: activity remaining, low choline (%)

Recorded results for 5 compounds are shown here.
# compound, recorded.endpoint, experimental.value
data = [
    ("CCc1cc(CNC(=O)c2ccc(OC)c(OC3CCN(C(C)C)CC3)c2)on1", "activity remaining, low choline", 92.9),
    ("COc1ccc(C(=O)NCCN2CCCCC2=O)cc1OC1CCN(C(C)C)CC1", "activity remaining, low choline", 80.3),
    ("CCc1cc(CNC(=O)c2ccc(OC)c(OCc3ccccn3)c2)on1", "activity remaining, low choline", 90.2),
    ("CCc1cc(CNC(=O)c2ccc(OC)c(OCCN3CCOCC3)c2)on1", "activity remaining, low choline", 69.2),
    ("CCc1cc(CNC(=O)c2ccc(OC)c(OCCOC)c2)on1", "activity remaining, low choline", 89.1),
]

1 = CCCCOc1cc(C(=O)NCc2cc(C(C)C)no2)ccc1OC
2 = COc1ccc(C(=O)NC(C)c2nccs2)cc1OC1CCN(C(C)C)CC1 (stereo not drawn)
Looking at 1 and 2 , which one comes out lower in activity remaining, low choline terms? Kindly give the label for the entry you pick. 2
(2: 34.1%, 1: 85.6%)
